system: GRK2 (Homo sapiens)
Construct: purchased SignalChem A14-10G
Sequence (P25098 whole entry): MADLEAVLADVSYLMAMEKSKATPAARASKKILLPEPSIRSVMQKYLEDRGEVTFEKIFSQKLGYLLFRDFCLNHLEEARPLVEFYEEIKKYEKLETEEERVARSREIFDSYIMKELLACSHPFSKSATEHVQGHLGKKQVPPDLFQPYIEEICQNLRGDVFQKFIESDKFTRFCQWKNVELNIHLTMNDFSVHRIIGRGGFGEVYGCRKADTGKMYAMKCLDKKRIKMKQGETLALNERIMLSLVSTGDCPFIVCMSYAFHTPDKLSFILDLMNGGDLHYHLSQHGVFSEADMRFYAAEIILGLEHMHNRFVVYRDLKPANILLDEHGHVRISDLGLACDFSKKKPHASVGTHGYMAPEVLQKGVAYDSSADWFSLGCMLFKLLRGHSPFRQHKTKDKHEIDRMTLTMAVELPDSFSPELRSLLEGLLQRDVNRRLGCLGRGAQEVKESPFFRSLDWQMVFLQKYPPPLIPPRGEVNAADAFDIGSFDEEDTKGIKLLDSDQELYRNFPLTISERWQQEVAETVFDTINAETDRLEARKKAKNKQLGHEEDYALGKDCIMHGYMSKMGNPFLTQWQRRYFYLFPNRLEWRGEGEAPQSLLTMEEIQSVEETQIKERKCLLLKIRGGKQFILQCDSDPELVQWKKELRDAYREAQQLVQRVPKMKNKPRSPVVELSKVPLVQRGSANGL
assay method text: ADPGlo GRK2 Inhibition Assay (Example 8)
Format: biochemical
measurement conditions: 7.5 nM GRK2, 10 μM ATP, ADP-Glo; read-out: GRK2 IC50 (nM) (Example 8)
Kindly state IC50 for each of the entries shown.
Numbers only, in nM.

Below, 5 molecules whose answers are already recorded.
1) COc1ncccc1CNC(=O)c1cccc(NCc2nnc(-c3ccncc3)[nH]2)c1 [compound 9]	12
2) Cn1c(CNc2cccc(C(=O)NC3c4ccccc4CC3O)c2)nnc1-c1ccncn1 (centres unmarked) [compound 56]	7.3
3) Cc1cccnc1C(C)NC(=O)c1cccc(NCc2nnc(-c3ccncn3)n2C)c1 (centres unmarked) [compound 17]	10
4) Cn1c(CNc2cccc(C(=O)NCc3ccc4nccn4c3)c2)nnc1-c1ccncn1 [compound 40]	1.7
5) CCS(=O)(=O)c1ccc(CNC(=O)c2cccc(NCc3nnc(-c4ccncn4)n3C)c2)cc1 [compound 53]	6.2

Parameters: items (list). Returns: IC50 for each item.
1. CC1Cc2cc(CNC(=O)c3cccc(NCc4nnc(-c5ccncn5)n4C)c3)ccc2O1 (centres unmarked) [compound 32]
2. COc1cccc(OC)c1CNC(=O)c1cccc(NCc2nnc(-c3ccncn3)n2C)c1 [compound 6]
3. Cn1c(CNc2cccc(C(=O)NC3(c4ccccc4)CCOCC3)c2)nnc1-c1ccncn1 [compound 8]

## Output
[22, 44, 140]
